- TEST SYSTEM: dAsCas12a S542R (Acidaminococcus sp., UniProt U2UMQ6 1-1307, S542R;D908A;E993A;D1235A)
- PROTOCOL DESCRIPTION: Spec-seq (native PAGE EMSA with sequencing of bound and unbound); 25 mM Tris-HCl pH 7.4, 150 mM KCl, 5 mM MgCl2, 10% glycerol, 1 mM DTT, 40 ng/uL salmon sperm DNA; 400 nM Cas12a, 480 nM crRNA, 50 nM library, 37 C 1 h; native PAGE at room temperature; high values mean tight binding;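 also: relative affinity from the bound to unbound sequence frequency ratio in Spec-seq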
- CONDITIONS USED: protein: recombinant
Reported binding signal values for the following binders.
OBSERVED PROPERTY: binding signal (lnKA)

BINDER: CAAC (dsDNA) DNA 1: GCTATCTAGTGCTCAGTACGCACTGCAACAGGAAACTTCTGGCAGGACCAGGTCATGAGATCGGAAGAGCACACGTCTGAACTCCAGTCA DNA 2: TGACTGGAGTTCAGACGTGTGCTCTTCCGATCTCATGACCTGGTCCTGCCAGAAGTTTCCTGTTGCAGTGCGTACTGAGCACTAGATAGC RNA: AAUUUCUACUCUUGUAGAUAGGAAACUUCUGGCAGGACC
TEST RESULT: -8.83
--
BINDER: CCCC (dsDNA) DNA 1: GCTATCTAGTGCTCAGTACGCACTGCCCCAGGAAACTTCTGGCAGGACCAGGTCATGAGATCGGAAGAGCACACGTCTGAACTCCAGTCA DNA 2: TGACTGGAGTTCAGACGTGTGCTCTTCCGATCTCATGACCTGGTCCTGCCAGAAGTTTCCTGGGGCAGTGCGTACTGAGCACTAGATAGC RNA: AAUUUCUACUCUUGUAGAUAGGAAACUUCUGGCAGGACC
TEST RESULT: -4.35
--
BINDER: ATCA (dsDNA) DNA 1: GCTATCTAGTGCTCAGTACGCACTGATCAAGGAAACTTCTGGCAGGACCAGGTCATGAGATCGGAAGAGCACACGTCTGAACTCCAGTCA DNA 2: TGACTGGAGTTCAGACGTGTGCTCTTCCGATCTCATGACCTGGTCCTGCCAGAAGTTTCCTTGATCAGTGCGTACTGAGCACTAGATAGC RNA: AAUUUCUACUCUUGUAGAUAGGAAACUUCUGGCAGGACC
TEST RESULT: -5.58
--
BINDER: GCCA (dsDNA) DNA 1: GCTATCTAGTGCTCAGTACGCACTGGCCAAGGAAACTTCTGGCAGGACCAGGTCATGAGATCGGAAGAGCACACGTCTGAACTCCAGTCA DNA 2: TGACTGGAGTTCAGACGTGTGCTCTTCCGATCTCATGACCTGGTCCTGCCAGAAGTTTCCTTGGCCAGTGCGTACTGAGCACTAGATAGC RNA: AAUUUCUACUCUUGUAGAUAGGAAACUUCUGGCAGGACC
TEST RESULT: -6.67
--
BINDER: TCTG (dsDNA) DNA 1: GCTATCTAGTGCTCAGTACGCACTGTCTGAGGAAACTTCTGGCAGGACCAGGTCATGAGATCGGAAGAGCACACGTCTGAACTCCAGTCA DNA 2: TGACTGGAGTTCAGACGTGTGCTCTTCCGATCTCATGACCTGGTCCTGCCAGAAGTTTCCTCAGACAGTGCGTACTGAGCACTAGATAGC RNA: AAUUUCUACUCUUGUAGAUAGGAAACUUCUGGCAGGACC
TEST RESULT: -5.38
